Test system: NLRP3 (IL-1β secretion from THP-1 cells)
Assay: IL-1β secretion assay in 384-well plates, PMA differentiated THP-1 cells, LPS and nigericin stimulation
Format: cell-based
Details: Homo sapiens; THP-1 cells, PMA 5 ng/mL, LPS 25 ng/mL, nigericin, IL-1β ELISA, 384-well; read-out: Activity
readout: IC50 (µM)

                                   compound                       experimental_system  readout_units  value_reported
0  CCN1CCC[C@@H](NC(=O)Cn2nc(C(C)C)c(-c3cc(F)cc(C4CC4)c3)cc2=O)C1 [Example 30]  NLRP3 (IL-1β secretion from THP-1 cells)             µM             1.3
1  CC(C)c1nn(CC(=O)Nc2ncncc2F)c(=O)cc1-c1cccc2ccncc12 [Example 33]  NLRP3 (IL-1β secretion from THP-1 cells)             µM            3.21
2  CC(C)c1nn(CC(=O)N[C@H]2C[C@@](C)(O)C2)c(=O)cc1-c1ccc(F)cc1 [Example 10]  NLRP3 (IL-1β secretion from THP-1 cells)             µM              50
3  CC(C)c1nn(CC(=O)N[C@H]2C[C@@](C)(O)C2)c(=O)cc1-c1cccc(C(F)(F)F)c1 [Example 13]  NLRP3 (IL-1β secretion from THP-1 cells)             µM            21.8
4  O=C(Cn1nc(C2CC2)c(-c2cc(F)cc(F)c2)cc1=O)Nc1ncncc1F [Example 48]  NLRP3 (IL-1β secretion from THP-1 cells)             µM            1.64
5  O=C(Cn1nc(C2CCC2)c(-c2cc(F)cc(F)c2)cc1=O)Nc1ncc(F)cn1 [Example 56]  NLRP3 (IL-1β secretion from THP-1 cells)             µM           0.713
6  CC(C)c1nn(CC(=O)N[C@H]2C[C@@](C)(O)C2)c(=O)cc1-c1cccc(F)c1 [Example 12]  NLRP3 (IL-1β secretion from THP-1 cells)             µM            1.66

Data origin, for the record: patent US20230348437A1
